experiment: yeast display, Sf9 membrane polyspecificity reagent, FACS + sequencing; frameworks hold sequencing errors
quantity: polyreactivity (PSR sort gate)

Some sequences with recorded polyreactivity (PSR sort gate):
QVQLVETGGVLVQAGGSLRLSCAASGRTFRYNAMGWYRPAPGKEREFVAAITWGGGSTYYADSVKGRFTISRDNAKNTVYLQMNSLKPEDTAVYYCNADYIGNYQSIYQYDYWGQGTQVTVSS; low polyreactivity
QVQLVESGGGLVQAGGSLRLSCAASGFTFSFYAMGCDRQAPGKERELVATISSGGSTTYADSVKGRFTISRDNANNTVYLHMNSLKPEDTAVYYCAARYGRVRNYRYDYWGKGTQVTVSS; high polyreactivity
QVQLVESGGGLVQAGGSLRLSCAASGSIFGDYAMGWYRQAPVKERELVATITWIGGSTYYADSVKGRFTISRDNAKNTVYLQMNSLTPEDTAVYYCAATKYVDVKYYYWGQGTQVTVSS; low polyreactivity
QVQLVESGGGLVQAGGSLRLSCAASGSTFVANAMGWYRQAPGKERELVAAISFNRGGNTYYADSVKGRFTISRDNAKNTVYLQMNSLKPEDTAVYYCAARNSYGNWRYYYWGQGTQVTVSS; high polyreactivity
QVQLVESGGGLVQAGGSLRLSCAASGIIFDRNTMGWYRQAPGKEREYVAAISRNGGSTSYADSVKGRFTISRDNAKNTVYLQMNSLKPEDTAVYDCAADVETFWGWRYEYWGQGTQVTVSS; low polyreactivity
QVQLVESARGLVQAGGSLRLSCAASGFTFYKYAMGWYRQAPGKETELVDAISSGGRTNYADSVKGRFTISRDNAMNTVYLHMNSLNPEDTAVYFCAADRSYRSGYNYWGQGTQVTVSS; high polyreactivity

**Query** Any idea what polyreactivity (PSR sort gate) was measured for `QVQLVESGGGLLQAGGSLRLSCAASGRIFGRNTKGWYRQAPGKERELVAVISWRGGSTYYADSVKGRFTISRDNAKNSVYLQMNSLKPEDTAVYYCNAKYPFSRRGDYWGQGTQVTVSS` ?
**Result** high polyreactivity

**Query** Any idea what polyreactivity (PSR sort gate) was measured for `QVQLVESGGVLVQAGGSLRLSCAASGSIFKRNVMGWYRQAPGKERELVAAITWSGASTYYADSVKGRFTISRDNAKNTVYLQMNSLKPEDTAVYYCAARGPSRRRDGSDYWGQGTQVTVSS` ?
**Result** high polyreactivity

**Query** Any idea what polyreactivity (PSR sort gate) was measured for `QVQLVESGGGLVQAGGSLRLSCAASGFIFRRNAMGWYRQAPGKERELVAAIRQRGDSTYYADSVKGRFTISRDNAKNTVYLQMNSLKPEDTAVYYCATDHAYFHPEYDYWGQGTQVTVSS` ?
**Result** low polyreactivity

**Query** Any idea what polyreactivity (PSR sort gate) was measured for `QVQLVESGGGLVQAGGSLRLSCAASGITFRGYAMGWYRQAPGKERELVAAISSRGGSTYYADSVKGRFTISRDNAKNTVYLQMNSLKPEDTAVYYCNAVSGLYFTYTYDYWGQGTQVTVSS` ?
**Result** high polyreactivity

**Query** Any idea what polyreactivity (PSR sort gate) was measured for `QVQLVESGGGLVQAGGSLRLSCAASGRTFTKNAMGWYRQAPGKEREFVAAISKSTGSTYYADSVKGRFTISRDNAKNTVYLQMNSLKPEDTAVYYCNARYRFFIQARWGYIFGYWGQGTQVTVSS` ?
**Result** high polyreactivity

**Query** Any idea what polyreactivity (PSR sort gate) was measured for `QVQLVDSGGGLVQAGGSLRLSCAASGFTFSYYVMGWYRQAPGKERELVAAITSSGGSTYYADSVKGRFTISRDNAKNTVSLQMISRNPEDTAVYYCNALVLSSEYGYWGLGTQVTVSS` ?
**Result** high polyreactivity

**Query** Any idea what polyreactivity (PSR sort gate) was measured for `QVQLVESGGGLVQAGGSLRLRCAASGRLFQSNAMGWYIQAPGKERELVSGINSDTSTYYADSVKGRFTISRDNAKNTVYLKMNSLKPDDTAVYYCNAGWDTYYWQSTEFDYWGQGTQVTVSS` ?
**Result** low polyreactivity

----------
test: yeast display, Sf9 membrane polyspecificity reagent, FACS + sequencing; frameworks hold sequencing errors
quantity: polyreactivity (PSR sort gate)

QVQLVESGGGLVQAGGSLRLSCAASGITFLPTAMGWYRQAPGKERELVAAITWRGGSTYYADAVKGRFTISRDHAKNTVYLQMNSLKREDTAVYYCGATGWQYVYYNYLWLKGGYWGQGTQVSVSS; high polyreactivity
QVQLVESGGGLVQAGGILRLSCSASGYISKVYVMGWYRQAPGKERELVAAITNGGRTNYADSVKGRFTISRDNAKNTVYLQMNSLKPEDTAVYYCAARPRWHIRYNYWGQGTQVTVSS; high polyreactivity

----------
assay: yeast display, Sf9 membrane polyspecificity reagent, FACS + sequencing; frameworks hold sequencing errors
quantity: polyreactivity (PSR sort gate)

Some sequences with recorded polyreactivity (PSR sort gate):
QVQLEESGGGLVQAGGSLRFSCAASGRIYRYAMGWYRQAPGKERELVASITYSGGSTYYADSVKGRFTISRDNAKNTVYLQMNSLKPEDTAVYYCAASTRHVHYGYWGQGTQVTVSS; high polyreactivity
QVQLVESGGGLVQAGGSLRLSCAASGRTFAWYAMGWYRQAPGKERELVAVIRRGSGDTYYADSVKGRFTISRDNAKNTVYLQMNSLKPEDTAVYYCAAKSVAYKTRAGGVRYESWGQGTQVTVSS; high polyreactivity
QVQLVESGGGLVQAGGSLRLSCADSGSTFEYNDMGWYRQEPGKERELVASSTYYADSVQGRFTISRDNAKNTVYLQMNSLKPEDTAVYFCAREQGVNRNHDYWGQGTLVTVSS; low polyreactivity
QVQLVESGGGLVQAGRSLRLSCAASGSTYGYYAMGWSRQAPGKERELVAAISSTGGRTYYADSVKGRFTISRDNAKNTVYVQMNSLKPEDTAVYYCAARQLSSHYDYWGQGPQVTVSS; low polyreactivity
QVQLVESGGGLVQAGGSLRLSCAASGRTFDVYAMGWYRPAPGKERELVATIRSDGSTTYADSVKGRFTISRDNAKNTDYLQLNSLKPEDTAVYYCAAERVGVFFRYDYWGQGTQVTVSS; low polyreactivity

**Query** Any idea what polyreactivity (PSR sort gate) was measured for `QVQLVESGGGLVQAGGSLRLSCAASGSIFVLYTMGWYRQAPGKERELVAAISYSGGSTNYADSVKGRFTISRDNAKNTVYLQMNSLKPEDTAVYYCAARASKGHKYWGQGTQVTVSS` ?
**Result** high polyreactivity

**Query** Any idea what polyreactivity (PSR sort gate) was measured for `QVQLVESGGGLVQAGGILRLTCAASGRTFYKNAMGWYRQAPGKERELVAAIDWIDGNTYYADSVKGRFTISRDNAKNTVYLQMNSLKPEDTAVYYCAAEGYDLGDYWGQGTQVTVSS` ?
**Result** low polyreactivity

**Query** Any idea what polyreactivity (PSR sort gate) was measured for `QVQLVESGGGLVQAGGSLRLSCAASGRILYVYAMGWYIQAPGKERELVAAITSGGSTHYADSVKGRFTISRDNAKNTVYLQMNSLKPEDTAVYYCAAYTLRNRGGFNYWGQGTQVTVSS` ?
**Result** high polyreactivity

**Query** Any idea what polyreactivity (PSR sort gate) was measured for `QVHIVESGGGLVQAGGSLRLSCAASGSNFTLYTMGWYRQAPGKERELVAAISTSGGRTYYADSVKGRFTISRDNAKNTVYLQMNSLKPEDTAVYYCNAGYWYYGQDDYWGQGTQVTVSS` ?
**Result** high polyreactivity

**Query** Any idea what polyreactivity (PSR sort gate) was measured for `QVQLVESGGGLVQAGGSLRLSCAASGFTFVYYAMGWYRQAPGKERELVAAISRGGSTYYADSVKGRFTISRDNAKNTVYLQMNSLKPEDTAVYYCNAKKSGHYVSYPAYDYWGQGTQVTVSS` ?
**Result** low polyreactivity

**Query** Any idea what polyreactivity (PSR sort gate) was measured for `QVQLVESGGGLVQAGGSLRLSCAASGSIFSVYAMGWYRQAPGKERELVAAITSGTSTYADSVKGRFTISRDNAKNTVYLQMNSLKPEDTAVYYCAAESGSPGYYYWGQGTQVTVSS` ?
**Result** low polyreactivity

----------
assay: yeast display, Sf9 membrane polyspecificity reagent, FACS + sequencing; frameworks hold sequencing errors
quantity: polyreactivity (PSR sort gate)

QVQLVESGGGLVQAGGSLRLSCAASGITFAYYVMGWYRPAPGKERELVAVISSRGSRTFYADSVKGRFTISRDNAKNTVYLQMNSLKPEDTAVYYCAADSTYSYYWGQGTQVTVSS; high polyreactivity
QVQLVESGGGLVQAGGSLRLSCAASGNTLDWYAMGGSRQAPGKERELVAAISSAGSTSYADSVKGRFTISRDNAKNTVYLQMNSLKPEDTAVYYCNVDVYSKDANFQSFASEYDYWGQGTQVTVSS; low polyreactivity
QVQLVESAGGLVQAGGSLRLSCAASGRTFFRNAMGWYRQAPGKERELVAGITASGGNTYYADSVKGRFTISRDNAKNTVYLQMNSLKPEDTAVYFCNAVYSLARITRAGYGYWGQGPQVTVSS; high polyreactivity
QVQLQESGGGLVQAGGSQRLSCAASGYIFYFQYMGWYRKAPGKEREFVAAISDGANTNYADSVKGRFTISRDNAKNTEYLQLNSLKPEDTAVYYCAVYADENYYYIYWGQGTQVNVSS; low polyreactivity

Proceeding to the next sequence to report its polyreactivity (PSR sort gate).
**Query** Any idea what polyreactivity (PSR sort gate) was measured for `QVQLVESGGGLVQAGGSLRLSCAASGSTFRWNAMGWYRQAPGKERELVASITSGGSTNYADSVKGRFTISRDNAKNTVYLQMNSLKPEDTAVYYCNADVRRSTYYVWLYDYWGQGTQVTVSS` ?
**Result** low polyreactivity
